tested on: SNB-75; assay: NCI tumour cell line growth inhibition, 48 h
Calls of active or inactive are those of the source. Cut-off read from the data, not from the text of the source: active = GI50 up to about 1.1 µM and inactive = higher.
property_measured: GI50

Query block: Which value of GI50 has been reported for COc1ccc(C2OC(=O)c3c2ccc2ccccc32)c(C)c1 (configuration not stated) in the records?
Result block: 2.93 µM (inactive)

Query block: Form field: reported GI50 of CC(=O)NCCCCCCNC(C)=O [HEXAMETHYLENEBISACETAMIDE]
Result block: 2840 µM (inactive)

Query block: Look at this molecule and give its reported GI50. CC1=NN(c2nc(N)nc(COCc3nc(N)nc(N4N=C(C)CC4(C)C)n3)n2)C(C)(C)C1
Result block: > 100 µM (inactive)

Query block: Query (molecule): Nc1ncc(N)c(NCC2(CO)CC(CCc3ccccc3)C2)n1 (configuration not stated) ; field requested: GI50
Result block: 12.6 µM (inactive)

Query block: Give its GI50 value. Item: NCCCN(CCCN)CCc1cn(C(=O)c2ccccc2)cn1
Result block: 6.07 µM (inactive)

Query block: Quick check: GI50 of Cn1c(SCc2ccc([N+](=O)[O-])cc2)nnc1C12CC3CC(CC(C3)C1)C2 ?
Result block: 4.66 µM (inactive)

Query block: Look up GI50 for this molecule: CC(C)(C)C1=CC(=N/N=c2\scc(-c3ccccc3)n2-c2ccccc2)C=C(C(C)(C)C)C1=O
Result block: > 100 µM (inactive)

* * *

tested on: NCI-H23; test: NCI tumour cell line growth inhibition, 48 h
The source made the active and inactive calls. No stated cut-off is given here; in the data, active = GI50 up to about 1.1 µM and inactive = higher.
Outcome field: choose from TRUE for active, FALSE for inactive

1) CSc1nc(=S)[nH]c2c1c(C)nn2-c1ccccc1 ... FALSE
2) Nc1ccc(C(=O)NN2C(=O)C(Cl)C2c2ccccc2Cl)cc1 (configuration not stated) ... FALSE
3) CCCCC[C@H](O)[C@H](C)C=C1SCCCS1 ... FALSE
4) Cc1cc2nc3c(C#N)c(-c4ccccc4)cc(Nc4ccc(F)cc4)n3c2cc1C ... FALSE
5) CN(C)CC1CN(C(=O)Nc2ccccc2)C(=N)O1 (configuration not stated) ... FALSE

Query block: What classification did COc1cc(OCc2ccc3nc(-c4ccccc4)c(Cl)nc3c2)cc(OC)c1OC end up with in this test?
Result block: FALSE

Query block: What is the recorded call for this compound in the test? O=C(NNc1ccccc1)/C(=C/c1ccc2c(c1)OCO2)NC(=O)c1ccccc1
Result block: FALSE

Query block: Entry CC(C)C(Sc1nc(N)nc2nc[nH]c12)C(=O)O (configuration not stated) : call = ?
Result block: FALSE

Query block: Hi team, can someone confirm the assay call for N#Cc1cn(-c2c3ccccc3nc3ccccc23)c(=O)[nH]c1=O ?
Result block: FALSE

Query block: In this assay, the call recorded for O=C(NCCCCCCCCCCCCNC(=O)c1cccc2ccccc12)c1cccc2ccccc12 was what?
Result block: FALSE

Query block: What did the test return for CCN(CC)Cc1nc(C2CCC([N+](=O)[O-])O2)no1 (configuration not stated) ?
Result block: FALSE

Query block: Called result for CO[C@H]1C[C@](C)(O)Cc2cc3c(c(O)c21)C(=O)c1c(O)cc2c(c1C3=O)O[C@@H]1O[C@@]2(C)[C@H](O)[C@@H](N(C)C)[C@@H]1O
Result block: TRUE
